These entries and their values trace back to patent US20260184710A1.

SYSTEM_NAME: Cbl-b (Homo sapiens)
Construct: Cbl-b-HiBit KI Jurkat Cells were purchased from Promega; host or cells: Cbl-b-HiBiT knock-in Jurkat cells
ASSAY: Cbl-b Degradation Method B (Nano-Glo HiBiT lytic detection)
Format: cell-based
TEST_CONDITIONS: Cbl-b-HiBit KI Jurkat Cells, incubated at least 6-24 hours; half maximal degradation; read-out: Cbl-b Degredation Method B IC50
READOUT_LABEL: DC50

# example entries with known answers
COMPOUND	READOUT_VALUE
Cn1cnnc1CC1(c2cccc(N3Cc4c(cc(CN5CCN(CC6CCN(c7ccc(N8CCC(=O)NC8=O)c(F)c7)CC6)CC5)cc4C(F)(F)F)C3=O)c2)COC1	> 500 nM
CC(c1cc2c(c(C(F)(F)F)c1)CN(c1cccc(C3(Cc4nncn4C)COC3)c1)C2=O)N1CCN(C[C@H]2CC[C@H](OC3CCN(c4ccc5c(c4F)CN(C4CCC(=O)NC4=O)C5=O)CC3)CC2)CC1 (single isomer, unassigned)	< 5 nM
Cn1cnnc1CC1(c2cccc(N3Cc4c(cc(N5CC6(CCN(c7cc8c(cc7F)C(=O)N(C7CCC(=O)NC7=O)C8=O)CC6)C5)cc4C(F)(F)F)C3=O)c2)COC1 (centres unmarked)	> 500 nM

Reported DC50 of C[C@@H]1CN(C[C@H]2CC[C@H](OC3CCN(c4ccc5c(c4F)CN(C4CCC(=O)NC4=O)C5=O)CC3)CC2)CCN1Cc1cc2c(c(C(F)(F)F)c1)CN(c1cccc(C3(Cc4nncn4C)COC3)c1)C2=O (some centres unmarked) : < 5 nM

Reported DC50 of Cn1cnnc1CC1(c2cccc(N3Cc4c(cc(CN5CC6(C5)CN(CC5CCN(c7ccc8c(c7)C(=O)N(C7CCC(=O)NC7=O)C8=O)CC5)C6)cc4C(F)(F)F)C3=O)c2)COC1 (centres unmarked) : > 500 nM

---

The molecules listed here are annotated with their DC50.
SYSTEM_NAME: Cbl-b (Homo sapiens)
Construct: Cbl-b-HiBit KI Jurkat Cells were purchased from Promega; host or cells: Cbl-b-HiBiT knock-in Jurkat cells
ASSAY: Cbl-b Degradation Method B (Nano-Glo HiBiT lytic detection)
Assay type: cell-based
TEST_CONDITIONS: Cbl-b-HiBit KI Jurkat Cells, incubated at least 6-24 hours; half maximal degradation; read-out: Cbl-b Degredation Method B IC50

# example entries with known answers
MOLECULE	DC50
CC1c2nc(N3CCC(O[C@H]4CC[C@@H](CN5C[C@@H]6C[C@H]5CN6Cc5cc6c(c(C(F)(F)F)c5)CN(c5cccc(C7(Cc8nncn8C)CC7)c5)C6=O)CC4)CC3)ccc2C(=O)N1C1CCC(=O)NC1=O (stereo partly drawn) [Example 218]	5 to 50 nM
Cn1cnnc1CC1(c2cccc(N3Cc4c(cc(CN5CCN(C6CC7(C6)CN(c6ccc8c(c6)C(=O)N(C6CCC(=O)NC6=O)C8=O)C7)CC5)cc4C(F)(F)F)C3=O)c2)COC1 (stereo not drawn) [Example 107]	> 500 nM
C[C@@H]1c2nc(N3CCC(O[C@H]4CC[C@H](CN5CCN(Cc6cc7c(c(C(F)(F)F)c6)CN(c6cccc(C8(Cc9nncn9C)CC(C#N)C8)c6)C7=O)CC5(C)C)CC4)CC3)ccc2C(=O)N1C1CCC(=O)NC1=O (single isomer, unassigned) [Example 311]	< 5 nM

Reported DC50 of CC1CN(C[C@H]2CC[C@H](OC3CCN(c4ccc5c(c4)n(C(C)C)c(=O)n5C4CCC(=O)NC4=O)CC3)CC2)CCN1Cc1cc2c(c(C(F)(F)F)c1)CN(c1cccc(C3(Cc4nncn4C)CC(C#N)C3)c1)C2=O (stereo partly drawn) [Example 245] : < 5 nM

Reported DC50 of COc1c(N2CCC(O[C@H]3CC[C@H](CN4CCC5(CC4)CN(c4cc6c(c(C(F)(F)F)c4)CN(c4cccc([C@]7(Cc8nncn8C)C[C@@H](C#N)C7)c4)C6=O)C5)CC3)CC2)ccc2c1CN(C1CCC(=O)NC1=O)C2=O (stereo partly drawn) [Example 186] : < 5 nM

---

SYSTEM_NAME: Cbl-b (Homo sapiens, UniProt Q13191)
Construct: Cbl-b-HiBit KI Jurkat Cells were purchased from Promega; host or cells: Cbl-b-HiBiT knock-in Jurkat cells
Sequence (Q13191 whole entry): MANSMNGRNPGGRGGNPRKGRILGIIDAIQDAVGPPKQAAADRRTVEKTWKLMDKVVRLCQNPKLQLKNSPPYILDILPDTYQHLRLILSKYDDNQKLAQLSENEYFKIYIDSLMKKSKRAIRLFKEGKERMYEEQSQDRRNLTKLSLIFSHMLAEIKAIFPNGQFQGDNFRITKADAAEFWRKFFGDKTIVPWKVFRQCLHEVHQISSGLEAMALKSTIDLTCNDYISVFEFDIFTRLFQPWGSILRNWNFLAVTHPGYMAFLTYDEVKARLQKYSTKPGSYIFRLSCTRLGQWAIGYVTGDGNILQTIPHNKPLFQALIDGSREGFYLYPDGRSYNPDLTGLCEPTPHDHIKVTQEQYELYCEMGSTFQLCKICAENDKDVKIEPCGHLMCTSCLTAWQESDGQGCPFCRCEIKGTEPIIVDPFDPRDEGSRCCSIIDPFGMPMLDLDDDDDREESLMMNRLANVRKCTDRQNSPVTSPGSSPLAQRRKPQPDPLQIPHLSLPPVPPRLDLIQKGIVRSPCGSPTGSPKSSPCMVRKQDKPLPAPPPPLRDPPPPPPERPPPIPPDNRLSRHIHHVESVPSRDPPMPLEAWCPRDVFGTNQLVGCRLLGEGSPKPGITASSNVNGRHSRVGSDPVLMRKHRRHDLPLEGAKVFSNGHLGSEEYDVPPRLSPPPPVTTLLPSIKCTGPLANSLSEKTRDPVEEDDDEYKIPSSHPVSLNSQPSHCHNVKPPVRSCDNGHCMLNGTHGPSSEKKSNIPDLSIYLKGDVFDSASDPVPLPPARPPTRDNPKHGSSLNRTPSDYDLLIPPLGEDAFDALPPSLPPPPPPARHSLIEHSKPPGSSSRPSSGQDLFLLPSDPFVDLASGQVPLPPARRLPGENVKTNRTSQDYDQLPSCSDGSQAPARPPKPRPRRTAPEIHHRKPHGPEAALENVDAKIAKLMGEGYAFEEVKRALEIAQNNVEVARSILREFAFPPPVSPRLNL
ASSAY: Cbl-b Degradation Method B (Nano-Glo HiBiT lytic detection)
Format: cell-based
TEST_CONDITIONS: Cbl-b-HiBit KI Jurkat Cells, incubated at least 6-24 hours; half maximal degradation; read-out: Cbl-b Degredation Method B IC50
The molecules listed here are annotated with their DC50.

# example entries with known answers
MOLECULE	READOUT_LABEL	READOUT_VALUE
CC1c2nc(N3CCC(O[C@H]4CC[C@H](CN5CCN(Cc6cc(C(F)(F)F)c7cn(-c8cccc(C9(Cc%10nncn%10C)CC9)c8)nc7c6)C(C)(C)C5)CC4)CC3)ccc2C(=O)N1C1CCC(=O)NC1=O (relative stereo)	DC50	> 500 nM
CC1c2nc(N3CCC(O[C@H]4CC[C@H](CN5CCN(Cc6cc(C(F)(F)F)c7c(n6)C(=O)N(c6cccc(C8(Cc9nncn9C)COC8)c6)C7)CC5)CC4)CC3)ccc2C(=O)N1C1CCC(=O)NC1=O (stereo partly drawn)	DC50	> 500 nM
Cn1cnnc1CC1(c2cccc(N3Cc4c(cc(N5CCC(CC6CCN(c7cc8c(cc7F)C(=O)N(C7CCC(=O)NC7=O)C8=O)CC6)CC5)cc4C(F)(F)F)C3=O)c2)COC1 (stereo not drawn)	DC50	> 500 nM
Cn1cnnc1CC1(c2cccc(N3Cc4c(cc(CN5CCC(COCC6CCN(c7ccc8c(c7)C(=O)N(C7CCC(=O)NC7=O)C8=O)CC6)CC5)cc4C(F)(F)F)C3=O)c2)COC1 (stereo not drawn)	DC50	> 500 nM
Cn1cnnc1CC1(c2cccc(N3Cc4c(cc(CN5CCC[C@H](CN6CCN(C[C@H]7CC[C@H](OC8CCN(c9ccc%10c(c9F)CN(C9CCC(=O)NC9=O)C%10=O)CC8)CC7)CC6(C)C)C5)cc4C(F)(F)F)C3=O)c2)COC1 (stereo partly drawn)	DC50	< 5 nM
Cn1cnnc1CC1(c2cccc(N3Cc4c(cc(N5CCC6(C5)CN(c5ccc7c(c5)C(=O)N(C5CCC(=O)NC5=O)C7=O)C6)cc4C(F)(F)F)C3=O)c2)COC1 (stereo not drawn)	DC50	> 500 nM

Reported DC50 of C[C@H]1CN(CC2CCC(OC3CCN(c4ccc5c(c4F)CN(C4CCC(=O)NC4=O)C5=O)CC3)CC2)[C@@H](C)CN1Cc1cc2c(c(C(F)(F)F)c1)CN(c1cccc(C3(Cc4nncn4C)COC3)c1)C2=O (stereo partly drawn) : < 5 nM

Reported DC50 of CC1CN(C[C@H]2CC[C@H](OC3CCN(c4ccc5c(n4)C(C)N(C4CCC(=O)NC4=O)C5=O)CC3)CC2)CCN1Cc1cc2c(c(C(F)(F)F)c1)CN(c1cccc(C3(Cc4nncn4C)CCC3)c1)C2=O (stereo partly drawn) : < 5 nM

Reported DC50 of Cn1cnnc1CC1(c2cccc(N3Cc4c(cc(CN5CCC(CN6CCC(COc7ccc8c(c7)C(=O)N(C7CCC(=O)NC7=O)C8=O)CC6)CC5)cc4C(F)(F)F)C3=O)c2)COC1 (stereo not drawn) : > 500 nM

Reported DC50 of CC1c2nc(N3CCC(O[C@H]4CC[C@H](CN5CCC6(CC5)CN(c5cc7c(c(C(F)(F)F)c5)CN(c5cccc([C@]8(Cc9nncn9C)C[C@@H](C#N)C8)c5)C7=O)C6)CC4)CC3)ccc2C(=O)N1C1CCC(=O)NC1=O (stereo partly drawn) : < 5 nM

Reported DC50 of CC1c2nc(N3CCC(O[C@H]4CC[C@H](CN5C[C@H]6C[C@@H]5CN6Cc5cc6c(c(C(F)(F)F)c5)CN(c5cccc([C@]7(Cc8nncn8C)C[C@@H](C#N)C7)c5)C6=O)CC4)CC3)ccc2C(=O)N1C1CCC(=O)NC1=O (stereo partly drawn) : < 5 nM

Reported DC50 of Cn1cnnc1C[C@]1(c2cccc(N3Cc4c(cc(CN5CCC[C@H](CN6CCN(C[C@H]7CC[C@H](OC8CCN(c9ccc%10c(c9F)CN(C9CCC(=O)NC9=O)C%10=O)CC8)CC7)CC6)C5)cc4C(F)(F)F)C3=O)c2)C[C@@H](C#N)C1 (stereo partly drawn) : < 5 nM

Reported DC50 of Cn1cnnc1C[C@]1(c2cccc(N3Cc4c(cc(N5CC6(CCN(C(=O)C7CCN(c8ccc9c(c8)C(=O)N(C8CCC(=O)NC8=O)C9=O)CC7)CC6)C5)cc4C(F)(F)F)C3=O)c2)C[C@H](C#N)C1 (stereo partly drawn) : 5 to 50 nM

---

SYSTEM_NAME: Cbl-b (Homo sapiens, UniProt Q13191)
Construct: Cbl-b-HiBit KI Jurkat Cells were purchased from Promega; host or cells: Cbl-b-HiBiT knock-in Jurkat cells
ASSAY: Cbl-b Degradation Method A (FACS, anti-Cbl-b antibody staining)
Format: cell-based
TEST_CONDITIONS: Cbl-b-HiBit KI Jurkat Cells, incubated at least 20 hours; half maximal degradation; read-out: Cbl-b Degredation Method A IC50
READOUT_LABEL: DC50

COMPOUND	READOUT_VALUE
CC1c2c(cc(CN3CCC[C@H](CN4CCN(C[C@H]5CC[C@H](OC6CCN(c7ccc8c(c7F)CN(C7CCC(=O)NC7=O)C8=O)CC6)CC5)CC4(C)C)C3)cc2C(F)(F)F)C(=O)N1c1cccc(C2(Cc3nncn3C)COC2)c1 (stereo partly drawn)	5 to 50 nM

Here Cn1cnnc1CC1(c2cccc(N3Cc4c(cc(CN5CCN(C[C@H]6CC[C@H](OC7CCN(c8cccc9c8ncn9C8CCC(=O)NC8=O)CC7)CC6)CC5(C)C)cc4C(F)(F)F)C3=O)c2)CC(C#N)C1 (stereo partly drawn) was tested on Cbl-b (Homo sapiens, UniProt Q13191), and its DC50 came to 5 to 50 nM

Here Cn1cnnc1CC1(c2cccc(N3Cc4c(cc(N5CCN(CC6CCN(c7ccc8c(c7)C(=O)N(C7CCC(=O)NC7=O)C8=O)CC6)CC5)cc4C(F)(F)F)C3=O)c2)COC1 (stereo not drawn) was tested on Cbl-b (Homo sapiens, UniProt Q13191), and its DC50 came to 50 to 500 nM

Here C[C@H]1C[C@@H](CN2CCN(c3ccc4c(c3)C(=O)N(C3CCC(=O)NC3=O)C4=O)CC2)CN(Cc2cc3c(c(C(F)(F)F)c2)CN(c2cccc(C4(Cc5nncn5C)COC4)c2)C3=O)C1 (stereo partly drawn) was tested on Cbl-b (Homo sapiens, UniProt Q13191), and its DC50 came to 5 to 50 nM

Here Cc1cc(N2CCC(O[C@H]3CC[C@H](CN4CCN(Cc5cc(C(F)(F)F)c6cn(-c7cccc(C8(Cc9nncn9C)CC(C#N)C8)c7)nc6c5)C(C)(C)C4)CC3)CC2)c(F)c2c1C(=O)N(C1CCC(=O)NC1=O)C2 (stereo partly drawn) was tested on Cbl-b (Homo sapiens, UniProt Q13191), and its DC50 came to 5 to 50 nM

Here CC1c2nc(N3CCC(O[C@H]4CC[C@H](CN5CCC6(CC5)CN(c5cc7c(c(C(F)(F)F)c5)CN(c5cccc([C@]8(Cc9nncn9C)C[C@@H](C#N)C8)c5)C7=O)C6)CC4)CC3)ccc2C(=O)N1C1CCC(=O)NC1=O (stereo partly drawn) was tested on Cbl-b (Homo sapiens, UniProt Q13191), and its DC50 came to 5 to 50 nM

Here Cn1cnnc1CC1(c2cccc(N3Cc4c(cc(CN5CCN(C[C@H]6CC[C@H](OC7CCN(c8cccc9c8CC(=O)N9C8CCC(=O)NC8=O)CC7)CC6)CC5(C)C)cc4C(F)(F)F)C3=O)c2)CC(C#N)C1 (stereo partly drawn) was tested on Cbl-b (Homo sapiens, UniProt Q13191), and its DC50 came to 50 to 500 nM

Here CC(C)n1c(=O)n(C2CCC(=O)NC2=O)c2cccc(N3CCC(O[C@H]4CC[C@H](CN5CCC6(CCN(Cc7cc8c(c(C(F)(F)F)c7)CN(c7cccc([C@]9(Cc%10nncn%10C)C[C@@H](C#N)C9)c7)C8=O)CC6)CC5)CC4)CC3)c21 (stereo partly drawn) was tested on Cbl-b (Homo sapiens, UniProt Q13191), and its DC50 came to 50 to 500 nM

Here CC(C)n1c(=O)n(C2CCC(=O)NC2=O)c2cccc(N3CCC(O[C@H]4CC[C@H](CN5CC6(CN(Cc7cc8c(c(C(F)(F)F)c7)CN(c7cccc([C@]9(Cc%10nncn%10C)C[C@@H](C#N)C9)c7)C8=O)C6)C5)CC4)CC3)c21 (stereo partly drawn) was tested on Cbl-b (Homo sapiens, UniProt Q13191), and its DC50 came to 5 to 50 nM
